# ASSAYED SYSTEM: Cystine/glutamate transporter (Homo sapiens)
# Sequence (whole entry): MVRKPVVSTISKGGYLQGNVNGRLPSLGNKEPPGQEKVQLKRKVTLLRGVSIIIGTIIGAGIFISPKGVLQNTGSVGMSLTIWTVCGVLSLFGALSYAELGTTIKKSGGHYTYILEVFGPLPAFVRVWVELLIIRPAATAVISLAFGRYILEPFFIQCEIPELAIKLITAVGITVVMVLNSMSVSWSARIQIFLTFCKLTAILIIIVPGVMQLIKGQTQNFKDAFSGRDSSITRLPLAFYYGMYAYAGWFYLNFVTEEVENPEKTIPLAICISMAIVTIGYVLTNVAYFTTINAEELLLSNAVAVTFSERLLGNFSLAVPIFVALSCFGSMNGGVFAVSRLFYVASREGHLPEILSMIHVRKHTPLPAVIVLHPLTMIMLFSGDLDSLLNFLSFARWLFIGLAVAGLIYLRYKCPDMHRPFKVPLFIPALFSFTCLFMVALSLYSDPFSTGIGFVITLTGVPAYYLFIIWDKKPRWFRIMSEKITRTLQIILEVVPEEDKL
# EXPERIMENT: Inhibition of amino acid transport system xc- in human SNB19 cells assessed as [3H]L-glutamate uptake at 250 uM by liquid scintillation counting
# Assay type: cell-based
# Design: scale not given: the % may be the effect or the level left
# CONDITION SET: SNB-19
Below is a list of entries, each paired with its recorded Activity value.
MEASURED PARAMETER: Activity (%)

                                smiles_data  measured_parameter  measured_result
0          CCc1onc(C(=O)O)c1C[C@H](N)C(=O)O            Activity               92
1           C/C(=N\NC(N)=O)c1c(C(=O)O)noc1C            Activity               91
2   C/C(=N\NC(=O)Nc1ccccc1)c1c(C(=O)O)noc1C            Activity               76
3         COCc1onc(C(=O)O)c1C[C@H](N)C(=O)O            Activity               98
4  N[C@@H](Cc1c(C(=O)O)noc1CCc1ccccc1)C(=O)O            Activity               70
5  N[C@@H](Cc1c(C(=O)O)noc1CCc1cccc2ccccc12)C(=O)O            Activity               47
